The entries below come with measured pEC50 values attached.
- Tgt: T1, alphaVbeta3 integrin, native human, on rhabdomyosarcoma (RD) cells and on human umbilical vein endothelial … (human, UniProt P06756 31-1048; P05106 27-788)
- T1 construct: whole, on cells; also called αVβ3; native human β3
- Test details: flow cytometry on RD cells expressing alphaVbeta3, PE anti-human IgG; EC50 = concentration where 50% of cells gated in R2
Friendly reminder that pEC50 comes from taking -log10 of the concentration in mol/L.

Examples from the recorded data:
[
  {
    "Binder": "VH2/Vκ3 Composite Human Antibody variant of HLMC (antibody, human IgG1, kappa, V domains shown, also called VH2/Vk3) VH: QAQLVQSGPEVKKPGASVKVSCKASGYLFSNSWMNWVKQRPGAGLEWIGRIFPGDGDTNYNGKFKGRATITADKSTSTAYMELSSLRSEDTAVYFCARWGLTRDRRLYLDYWGQGTTVTVSS VL: DIVMTQSPDSLAVSLGERATINCKSSQSLLYSSNQKNYLAWYQQKPGQAPRLLIYWASTRESGVPDRFSGSGSGTDFTLTISSLQAEDVAVYYCKQYYTYPLTFGQGTKLEIKR",
    "pEC50": 8.43
  },
  {
    "Binder": "VH1/Vκ3 Composite Human Antibody variant of HLMC (antibody, human IgG1, kappa, V domains shown, also called VH1/Vk3) VH: QAQLVQSGPELKKPGASVKVSCKASGYLFSNSWMNWVKQRPGAGLEWIGRIFPGDGDTNYNGKFKGRATITADKSTSTAYMELSSLRSEDSAVYFCARWGLTRDRRLYLDYWGQGTTVTVSS VL: DIVMTQSPDSLAVSLGERATINCKSSQSLLYSSNQKNYLAWYQQKPGQAPRLLIYWASTRESGVPDRFSGSGSGTDFTLTISSLQAEDVAVYYCKQYYTYPLTFGQGTKLEIKR",
    "pEC50": 8.39
  }
]

Pending binder:
Answer with reported pEC50 of VH5/Vκ1 Composite Human Antibody variant of HLMC (antibody, human IgG1, kappa, V domains shown, also called VH5/Vk1) VH: QAQLVQSGAEVKKPGASVKVSCKASGYLFSNSWMNWVKQRRGAGLEWIGRIFPGDGDTNYNGKFKGRVTITADKSTSTAYMELSSLRSEDTAVYYCARWGLTRDRRLYLDYWGQGTTVTVSS VL: DIVMTQSPDSLVVSLGERATINCKSSQSLLYSSNQKNYLAWYQQKSGQAPRLLIYWASTRESGVPDRFTGSGSGTDFTLTISSLQAEDVAVYYCKQYYTYPLTFGQGTKLEIKR
8.35
